Measured values drawn from ChEMBL document CHEMBL1201862 for this set.

# Test system: RPMI-8226
# protocol.details: NCI tumour cell line growth inhibition, 48 h
The source made the active and inactive calls. No stated cut-off is given here; in the data, active = GI50 up to about 1.1 µM and inactive = higher.
Below, each of the molecules is paired with its reported GI50 value.

Example molecules with recorded GI50:
{"molecule": "ClCc1c(-c2ccccc2)nn(-c2ccccc2)c1CCl", "assay.system": "RPMI-8226", "GI50": "2.26 µM (inactive)"}
{"molecule": "COc1ccccc1-c1nc[nH]c1-c1ccccc1OC", "assay.system": "RPMI-8226", "GI50": "29.3 µM (inactive)"}
{"molecule": "COc1cc2c[n+]3c4c(c2c(OC)c1OC)CCCC4CC3 (centres undefined)", "assay.system": "RPMI-8226", "GI50": "> 100 µM (inactive)"}

(Q) Fill blank: measured GI50 of the molecule CC(Cl)CN1c2ccccc2Sc2ccc(Cl)cc21 (centres undefined) is ____.
(A) > 10 µM (inactive)

(Q) // query GI50 value for entry CC(=O)OC/C=C\Cn1nc(Br)c(=O)[nH]c1=O
(A) 25.9 µM (inactive)

(Q) Consider the molecule N#CC12Cc3cc4c(cc3-c3cccc(c31)CCN2C(=O)c1ccccc1)OCO4 (centres undefined) and give its measured GI50.
(A) > 100 µM (inactive)

(Q) Given the molecule CC(Br)C(=O)c1ccc2cc(Br)c3ccccc3c2c1 (centres undefined) , what is its reported GI50?
(A) 4.65 µM (inactive)

(Q) Quick one: GI50 of CCC(=O)Nc1ncnc2ncn(C(=O)CC)c12 ?
(A) > 100 µM (inactive)

(Q) Find the recorded GI50 belonging to CC1=C(C(=O)CC(=O)C(=O)Nc2cccc(C)c2C)Sc2ccccc2N1 and report it.
(A) > 100 µM (inactive)
